Quick reference: TGI of the listed items.
Test system: OVCAR-5 ovarian
Assay: NCI tumour cell line growth inhibition, 48 h
*1 amine or outer side, *2 acyl side, *3 side chain or, on linkers, in order; H or OH if unused. Where a SMILES comes first, the peptide text is derived from it. [ ]: non-standard residue; d: D form. The star is where a group is joined. ξ: configuration not given here. NMeY = CN[C@@H](Cc1ccc(O)cc1)C(=O)O; Ethylenediamine = C(CN[*:2])N[*:1]; ξNMeL = CNC(CC(C)C)C(=O)O; Cbz = O=C(OCc1ccccc1)*; Lac = C[C@H](O)C(=O)O; ξA = CC(N)C(=O)O

Molecule	TGI
CCC1C(C#N)=C(O)NC(O)=C1C#N	> 100 µM
O=C(NCCc1ccccc1)Nc1ccc2cc3ccc(NC(=O)NCCc4ccccc4)cc3nc2c1	5.7 µM
COc1ccc(C(=O)O[C@H]2CC[C@@]3(C)[C@@H]4CC[C@H]5[C@]6(O)C[C@H](O)[C@@]7(O)[C@@H](CN8C[C@@H](C)CC[C@H]8[C@@]7(C)O)[C@]6(O)C[C@@]53OC24O)cc1OC	> 100 µM
C1OC1CN1CCN(CC2CO2)CC1 (stereo not drawn)	> 100 µM
N#Cc1ccc(-c2c(-c3ncn[nH]3)sc(N3CCOCC3)c2C#N)c(F)c1	10.5 µM
O=C(c1ccco1)N(C(=S)N1CCN(c2ccccc2)CC1)C1CCCCC1	> 100 µM
CN(C)C(=O)OCc1nc2c(N3CCOCC3)nc(-c3ccccc3)nc2n1C	3.26 µM
Cc1c2n(c3ccccc13)S(=O)(=O)c1ccccc1-2	> 100 µM
CN(C)C1(N(C)C)Oc2c(c(=O)n(C)c(=O)n2C)C(c2ccc(C(F)(F)F)cc2)C1(F)F (stereo not drawn)	> 100 µM
CC(=O)c1c(SCCN2CCOCC2)n(-c2ccccc2)c(=S)n(-c2ccccc2)c1=O	> 100 µM
Cc1ccc(/C=C/C(=N/NC(=O)N/N=C(/C=C/c2ccc(C)cc2)C(C)C)C(C)C)cc1	> 10 µM
COc1ccc(C[C@@H](C(=O)NCCNC(=O)C(CC(C)C)N(C)C(=O)[C@@H]2CCCN2C(=O)[C@H](C)O)N(C)C(=O)[C@@H]2CCCN2C(=O)[C@H](CC(C)C)NC(=O)C(C)NC(=O)OCc2ccccc2)cc1 (stereo partly drawn) (Cbz-[ξA]LP[NMeY](Me)-{Ethylenediamine-ξNMeL-Pro-Lac})	> 100 µM
Cc1cn(C2C=CC(COP(=O)(OCc3ccc([N+](=O)[O-])o3)N(C)CCCCCl)O2)c(=O)[nH]c1=O (stereo not drawn)	30.9 µM
C=C(Cl)/C(=C\Cl)CCC(Cl)C(C)C (stereo not drawn)	> 100 µM
O=c1c2ccccc2[nH]c2c(O)ccc(O)c12	> 100 µM
Cc1ccc(Nc2cc(Cl)c([N+](=O)[O-])cc2[N+](=O)[O-])cc1	20.9 µM
CCOC(=O)Nc1sc2c(c1C#N)CC(C)CC2 (stereo not drawn)	99.1 µM
CCOC(=O)C(Cc1c[nH]c2cc(N(CCO)CCO)ccc12)(NC(C)=O)C(=O)OCC	> 1000 µM

---

Test system: K-562 leukemia
Experiment: NCI tumour cell line growth inhibition, 48 h
Reported Endpoint: GI50

> print(dat)
                                   compound  reported.endpoint  result.value
1  O=[N+]([O-])c1cccc(-c2nc(-c3ccc(Cl)cc3Cl)cn2-c2ccccc2)c1               GI50     > 9260 nM
2  COc1ccc(/C(C)=N/NC(=O)CSc2nc3ccccc3c(=O)n2CCc2ccc(S(N)(=O)=O)cc2)cc1               GI50       2870 nM
3  CO[C@@H]1CCN(c2nccc(Nc3cc4c(C(C)C)ccc(N5CC(CS(C)(=O)=O)[C@H]5C)c4cn3)n2)C[C@@H]1F (some centres undefined)               GI50       2900 nM
4  Cc1ccc(Nc2cc(Cl)c([N+](=O)[O-])cc2[N+](=O)[O-])cc1               GI50        614 nM
